Reported pIC50 values follow for various compounds
system: NCI-H727; assay: cells; type: functional, cell-based, Homo sapiens; details: Homo sapiens, NCI-H727;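 note: growth inhibition of human NCI-H727 cells, read out with a cell viability assay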
Description: SANGER: Inhibition of human NCI-H727 cell growth in a cell viability assay.
pIC50: −log10 of the molar value.
QUANTITY_MEASURED: pIC50

COMPOUND | READOUT_VALUE
COc1cc(F)c(F)c(Nc2ccc(I)cc2F)c1NS(=O)(=O)C1(CC(O)CO)CC1 (stereo not drawn) | < 5.30
CC(=O)O[C@@]12CO[C@@H]1C[C@H](O)[C@@]1(C)C(=O)[C@H](O)C3=C(C)[C@@H](OC(=O)[C@H](O)[C@@H](NC(=O)OC(C)(C)C)c4ccccc4)C[C@@](O)([C@@H](OC(=O)c4ccccc4)[C@H]21)C3(C)C [DOCETAXEL] | < 8.00
COc1ccc(-c2ccc3c(N4CCOC[C@@H]4C)nc(N4CCOC[C@@H]4C)nc3n2)cc1CO [AZD-8055] | < 5.70

* * *

test system: SK-MES-1; assay: cells; type: functional, cell-based, Homo sapiens; settings: Homo sapiens, SK-MES-1
Description: SANGER: Inhibition of human SK-MES-1 cell growth in a cell viability assay.

SMI | TARGET_DESC | IC50
CC(=O)O[C@@H]1[C@@H](OC(C)=O)[C@@H](O)[C@H](Oc2c(-c3ccc(O)cc3)oc3cc(O)cc(O)c3c2=O)O[C@H]1C | SK-MES-1 | > 10 µM
CCOc1nc(NC(=O)Cc2cc(OC)ccc2OC)cc(N)c1C#N | SK-MES-1 | > 10 µM
O=C1N=C(NCc2cccs2)S/C1=C\c1ccc2ncccc2c1 | SK-MES-1 | > 5 µM

* * *

tested on: UMC-11; assay: cells; format: functional, cell-based, Homo sapiens; conditions: Homo sapiens, UMC-11
Description: SANGER: Inhibition of human UMC-11 cell growth in a cell viability assay.
pIC50: −log10 of the molar value.

COMPOUND | pIC50
COc1cc(F)c(F)c(Nc2ccc(I)cc2F)c1NS(=O)(=O)C1(CC(O)CO)CC1 (centres undefined) | < 5.30
Cc1ccc(Nc2nccc(N(C)c3ccc4c(C)n(C)nc4c3)n2)cc1S(N)(=O)=O [PAZOPANIB] | < 5.10
O=C(NOCC1CC1)c1ccc(F)c(F)c1Nc1ccc(I)cc1Cl [CI-1040] | < 5.00
O=c1cc(-c2cccc3c2Sc2ccccc2S3)oc(N2CCOCC2)c1 [KU-55933] | < 5.00
C=CCc1cccc(/C=N/NC(=O)CN2CCN(Cc3ccccc3)CC2)c1O [PAC-1] | < 5.59
COc1ccc(C2=N[C@@H](c3ccc(Cl)cc3)[C@@H](c3ccc(Cl)cc3)N2C(=O)N2CCNC(=O)C2)c(OC(C)C)c1 [NUTLIN-3] | < 5.10
CN(C)C/C=C/C(=O)Nc1cc2c(Nc3ccc(F)c(Cl)c3)ncnc2cc1O[C@H]1CCOC1 [AFATINIB] | < 6.30
COc1ccc(-c2ccc3c(N4CCOC[C@@H]4C)nc(N4CCOC[C@@H]4C)nc3n2)cc1CO [AZD-8055] | < 5.70
O=C(c1cc(Cc2n[nH]c(=O)c3ccccc23)ccc1F)N1CCN(C(=O)C2CC2)CC1 [OLAPARIB] | < 5.30

* * *

tested on: NCI-H838; test: cells; assay type: functional, cell-based; details: Homo sapiens;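 note: growth inhibition of human NCI-H838 cells, read out by a cell viability assay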
Description: SANGER: Inhibition of human NCI-H838 cell growth in a cell viability assay.
pIC50: −log10 of the molar value.
Reported pIC50 values follow for various compounds
QUANTITY_MEASURED: pIC50

SMI | QUANTITY_MEASURED | READOUT_VALUE
C=CCc1cccc(/C=N/NC(=O)CN2CCN(Cc3ccccc3)CC2)c1O | pIC50 | < 5.59
Cc1cc([C@@H](C)Nc2ccccc2C(=O)O)c2nc(N3CCOCC3)cc(=O)n2c1 | pIC50 | < 5.29
Cc1cnc(-c2cnc(NCCNc3ccc(C#N)cn3)nc2-c2ccc(Cl)cc2Cl)[nH]1 | pIC50 | < 5.59
